# run-description: Pharmacokinetics of regorafenib in plasma (HPLC–MS/MS) after a single oral 120 mg dose in healthy male subjects
# Format: in vivo, human
# assay-context: male, human; regorafenib in plasma, LC–MS/MS; single oral 120 mg solution; N = 4; geometric mean (%CV)
test-readout: AUC (ng·h/mL)

>>> print(df.to_string())
                                smiles_data  measured_number
0  CNC(=O)c1cc(Oc2ccc(NC(=O)Nc3ccc(Cl)c(C(F)(F)F)c3)c(F)c2)ccn1            39000

###

# run-description: Metabolite profiling in plasma by HPLC–LSC
# Type: in vivo, human
# assay-context: based on HPLC–LSC; mean
test-readout: Percent of total AUC(0–144) of radioactivity in plasma (%)

>>> df
                                   molecule  unit_label  measured_number
0  NC(=O)c1cc(Oc2ccc(NC(=O)Nc3ccc(Cl)c(C(F)(F)F)c3)c(F)c2)cc[n+]1[O-]           %              6.3
1  CNC(=O)c1cc(Oc2ccc(NC(=O)Nc3ccc(Cl)c(C(F)(F)F)c3)c(F)c2)cc[n+]1[O-]           %             28.7
2  CNC(=O)c1cc(Oc2ccc(NC(=O)Nc3ccc(Cl)c(C(F)(F)F)c3)c(F)c2)ccn1           %             57.4
3  CNC(=O)c1cc(Oc2ccc(NC(=O)N(c3ccc(Cl)c(C(F)(F)F)c3)C3OC(C(=O)O)C(O)C(O)C3O)c(F)c2)ccn1 (stereo not shown)           %              3.1
